# target_of_assay: human Y4 receptor (human, UniProt P50391 1-375)
# Sequence (P50391 whole entry): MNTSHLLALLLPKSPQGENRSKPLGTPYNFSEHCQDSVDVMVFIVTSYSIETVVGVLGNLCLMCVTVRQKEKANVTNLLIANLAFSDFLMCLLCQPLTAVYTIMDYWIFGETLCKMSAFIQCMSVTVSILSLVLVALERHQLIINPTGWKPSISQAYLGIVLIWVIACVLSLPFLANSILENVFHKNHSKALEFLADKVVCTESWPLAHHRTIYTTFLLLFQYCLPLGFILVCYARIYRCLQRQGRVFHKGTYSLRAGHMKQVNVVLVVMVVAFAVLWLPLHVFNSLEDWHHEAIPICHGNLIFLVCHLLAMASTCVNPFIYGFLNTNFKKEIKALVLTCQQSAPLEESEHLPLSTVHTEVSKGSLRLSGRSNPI
# experimental_details: 125I-PP displacement
For each of the binders below, state its pIC50.
Answers are plain numbers, as −log10 of the molar value.

{"binder": "APLEPVYPGDNATPEELVHYYSALRHYINMLTRPRY [7105]", "pIC50": 9.82}
{"binder": "AAPLEPVYPGDNATPEQMAQYAAALRRYINKLTRPRY [compound of SEQ ID NO:168 (Ala 0, Ala 23 and Lys 30, code 7215)]", "pIC50": 10.24}

Attention now turns to another entry.
Exam item: Given PAPLEPVYPGDNATPEEINHYYSALRRYINMLTRPRY [7123] , state its recorded pIC50.
Marked response: 10.05
